- Experimental System: DNA polymerase alpha catalytic subunit (Homo sapiens, UniProt P09884)
- Sequence (P09884 whole entry): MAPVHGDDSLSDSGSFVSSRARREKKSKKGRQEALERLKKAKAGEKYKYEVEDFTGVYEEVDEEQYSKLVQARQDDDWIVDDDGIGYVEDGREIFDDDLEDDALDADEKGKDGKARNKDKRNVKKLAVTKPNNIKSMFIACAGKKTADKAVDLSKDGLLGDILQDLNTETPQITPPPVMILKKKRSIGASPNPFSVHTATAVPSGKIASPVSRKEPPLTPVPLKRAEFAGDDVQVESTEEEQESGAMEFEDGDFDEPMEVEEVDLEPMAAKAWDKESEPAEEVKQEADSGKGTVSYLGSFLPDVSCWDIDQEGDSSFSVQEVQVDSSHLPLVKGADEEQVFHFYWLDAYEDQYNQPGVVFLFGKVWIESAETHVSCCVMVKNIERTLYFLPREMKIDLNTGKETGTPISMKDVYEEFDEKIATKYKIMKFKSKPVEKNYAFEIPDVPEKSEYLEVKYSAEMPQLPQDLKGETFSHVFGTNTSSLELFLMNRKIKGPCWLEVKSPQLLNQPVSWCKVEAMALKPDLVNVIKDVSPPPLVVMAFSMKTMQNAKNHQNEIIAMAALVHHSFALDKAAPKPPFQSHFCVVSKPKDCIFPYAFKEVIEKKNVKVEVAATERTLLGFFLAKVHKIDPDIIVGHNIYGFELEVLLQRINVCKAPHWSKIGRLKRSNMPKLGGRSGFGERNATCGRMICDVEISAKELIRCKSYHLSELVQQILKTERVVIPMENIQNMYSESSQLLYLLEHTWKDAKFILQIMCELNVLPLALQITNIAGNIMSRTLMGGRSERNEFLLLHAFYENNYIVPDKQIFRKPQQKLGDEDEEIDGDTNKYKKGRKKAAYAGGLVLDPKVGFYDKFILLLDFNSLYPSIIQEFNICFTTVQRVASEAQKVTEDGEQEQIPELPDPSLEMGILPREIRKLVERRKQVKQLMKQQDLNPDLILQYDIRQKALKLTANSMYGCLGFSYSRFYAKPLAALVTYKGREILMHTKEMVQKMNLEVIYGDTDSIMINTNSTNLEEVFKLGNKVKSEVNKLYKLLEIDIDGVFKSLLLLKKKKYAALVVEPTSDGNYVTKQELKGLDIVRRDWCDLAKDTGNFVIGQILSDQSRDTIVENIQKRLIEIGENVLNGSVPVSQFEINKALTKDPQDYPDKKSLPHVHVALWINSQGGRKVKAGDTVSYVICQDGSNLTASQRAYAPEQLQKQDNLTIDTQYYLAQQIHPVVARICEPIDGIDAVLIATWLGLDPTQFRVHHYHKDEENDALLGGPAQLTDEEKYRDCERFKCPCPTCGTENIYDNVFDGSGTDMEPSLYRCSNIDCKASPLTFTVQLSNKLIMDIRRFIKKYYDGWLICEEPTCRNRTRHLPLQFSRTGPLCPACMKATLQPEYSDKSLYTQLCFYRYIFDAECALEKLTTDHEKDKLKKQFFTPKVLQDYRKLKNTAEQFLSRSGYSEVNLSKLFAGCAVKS
- Assay Comment: Compound was evaluated for the inhibitory activity against Human alpha polymerase
Observed Property: IC50

Value of measured IC50 for the entry O=C(Nc1cccc([N+](=O)[O-])c1)c1cc2ccccc2cc1O : 32 µM

###

Reported values of pIC50 for individual entries
- Tested on: HFF
- Assay Comment: Antiviral activity in a cell-based plaque reduction assay, using an HFF cell line and the Davis strain of HCMV
- Type: functional
- Run Parameters: Homo sapiens
In simple prose, pIC50 is minus the logarithm base ten of a concentration in moles per litre.

Field: example entries. Status: answers known.
Smiles Data: O=C(NCc1ccc(Cl)cc1)c1cc2cccc(O)c2cc1O
Observed Property: pIC50
Observed Measurement: 6.22

Smiles Data: COc1ccc2cc(O)c(C(=O)NCc3ccc([N+](=O)[O-])cc3)cc2c1
Observed Property: pIC50
Observed Measurement: 5.43

Smiles Data: O=C(NCc1ccc([N+](=O)[O-])cc1)c1cc2cccc(O)c2cc1O
Observed Property: pIC50
Observed Measurement: 5.82

The reported pIC50 of the molecule Nc1nc2c(ncn2COC(CO)CO)c(=O)[nH]1 was 6.22

pIC50 measured on O=C(NCc1ccc(Cl)cc1)c1cc2cc(O)ccc2cc1O = 6.00

###

- System: HFF
- Assay Comment: Antiviral activity in a cell-based plaque reduction assay, using an HFF cell line and the Davis strain of HCMV
- Assay type: functional
- Run Parameters: Homo sapiens
Reported IC50 values for the following molecules.

Example cases with answers are listed next.
Smiles Data: O=C(NCc1ccc(Cl)cc1)c1ccc2ccccc2c1O
Experimental System: HFF
Observed Measurement: > 20 µM

Smiles Data: O=C(NCCc1ccc(Cl)cc1)c1cc2ccccc2cc1O
Experimental System: HFF
Observed Measurement: > 20 µM

# evaluate next
Looking up COc1ccc2cc(O)c(C(=O)Nc3nc4c(Cl)cccc4s3)cc2c1 , I see its IC50 listed as > 5 µM
